Target: T1, mouse tissue factor pathway inhibitor (TFPI) (mouse, UniProt O54819 29-289, limits assumed)
T1 construct: bought; also called mTFPI; murine TFPI
T1 sequence (looked up): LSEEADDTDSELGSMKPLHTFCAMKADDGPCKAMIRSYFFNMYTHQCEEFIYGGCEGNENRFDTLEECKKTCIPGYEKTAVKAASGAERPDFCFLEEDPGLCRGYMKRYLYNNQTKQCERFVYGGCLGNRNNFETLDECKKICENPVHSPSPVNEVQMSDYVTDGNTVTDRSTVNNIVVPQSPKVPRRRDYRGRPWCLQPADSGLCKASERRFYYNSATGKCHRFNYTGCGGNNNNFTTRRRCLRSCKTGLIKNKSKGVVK
Test: competitive ELISA
Please provide measured variant/wild-type for the entries that follow.
Param answer (str): number followed by unit.

Field variant/wild-type (entry 2A8 HC_I51D (Fab, V domains shown, also called 2A8-12) VH: QVQLVESGGGLVQPGGSLRLSCAASGFTFRSYGMSWVRQAPGKGLEWVSSDRGSSSSTYYADSVKGRFTISRDNSKNTLYLQMNSLRAEDTAVYYCARKYRYWFDYWGQGTLVTVSS VL: DIELTQPPSVSVAPGQTARISCSGDNLRNYYAHWYQQKPGQAPVVVIYYDNNRPSGIPERFSGSNSGNTATLTISGTQAEDEADYYCQSWDDGVPVFGGGTKLTVLG ) reads 1.4 ratio

Field variant/wild-type (entry 2A8 LC_V96G (Fab, V domains shown) VH: QVQLVESGGGLVQPGGSLRLSCAASGFTFRSYGMSWVRQAPGKGLEWVSSIRGSSSSTYYADSVKGRFTISRDNSKNTLYLQMNSLRAEDTAVYYCARKYRYWFDYWGQGTLVTVSS VL: DIELTQPPSVSVAPGQTARISCSGDNLRNYYAHWYQQKPGQAPVVVIYYDNNRPSGIPERFSGSNSGNTATLTISGTQAEDEADYYCQSWDDGVPGFGGGTKLTVLG ) reads 1.2 ratio

Turning now to a further binder:
Field variant/wild-type (entry 2A8 HC_F104Y (Fab, V domains shown) VH: QVQLVESGGGLVQPGGSLRLSCAASGFTFRSYGMSWVRQAPGKGLEWVSSIRGSSSSTYYADSVKGRFTISRDNSKNTLYLQMNSLRAEDTAVYYCARKYRYWYDYWGQGTLVTVSS VL: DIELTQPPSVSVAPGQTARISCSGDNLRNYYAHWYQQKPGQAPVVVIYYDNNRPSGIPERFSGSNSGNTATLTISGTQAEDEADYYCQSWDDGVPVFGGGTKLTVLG ) reads 1.5 ratio
